# Measured On: UniProtKB Q13822
# Type: biochemical
# Measurement Parameters: LE = −RTpKi/nb heavy atoms; from concentration response pIC50
Quantity Measured: LE (ligand efficiency)

Some solved entries appear below for comparison.
COCCc1ccc(OCc2cccc(B(O)O)c2)cc1 | 0.41
N#Cc1cccc(B(O)O)c1 | 0.58
Oc1ccc(-n2ccnc2)cc1 | 0.37
CS(=O)(=O)c1ccc(B(O)O)cc1 | 0.55
OB(O)c1ccccc1 | 0.76

A = N#Cc1ccc(B(O)O)cc1
B = CS(=O)(=O)c1ccc(O)cc1
Task: Rank A against B by their LE (ligand efficiency) values and give the higher one. Give the label under which the chosen entry appears.
Output: A
(A: 0.66, B: 0.40)

---

# Measured On: ATX (full length human β form with a C-terminal 6-His tag) (Homo sapiens, UniProt Q13822)
# Type: biochemical
# Measurement Parameters: LLE = pIC50 – cLogP; from concentration response pIC50
Quantity Measured: LLE (lipophilic ligand efficiency)

CS(=O)(=O)c1ccc(O)cc1 [Compound 12] | 2.9
O=C(O)c1ccc2cc[nH]c2c1 [Compound 2] | 2.8

P = OCc1cccc(B(O)O)c1 [Compound 18]
Q = Oc1ccc(-n2ccnc2)cc1 [Compound 10]
Task: Returns the identifier with the smallest measured LLE (lipophilic ligand efficiency) among P and Q . Lab note: record the label of whichever item you select.
Output: Q

I = COc1cccc(B(O)O)c1 [Compound 17]
II = OB(O)c1ccc2cc[nH]c2c1 [Compound 1]
Task: Short answer wanted: higher LLE (lipophilic ligand efficiency), I or II ? In your reply, give the label of the chosen option.
Output: II
(II: 4.4, I: 2.9)

---

# Measured On: ATX (full length human β form with a C-terminal 6-His tag) (Homo sapiens)
# Type: biochemical
# Measurement Parameters: LLE = pIC50 – cLogP; from concentration response pIC50
Quantity Measured: LLE (lipophilic ligand efficiency)

OB(O)c1ccc2nonc2c1 [Compound 3] | 3.8
COCCc1ccc(OCc2cccc(B(O)O)c2)cc1 [Compound 19] | 3.3
CS(=O)(=O)c1ccc(B(O)O)cc1 [Compound 11] | 4.9
COc1ccccc1B(O)O [Compound 15] | 3.8
COc1ccc(B(O)O)cc1 [Compound 13] | 3.6
OB(O)c1ccccc1 [Compound 14, phenyl boronic acid] | 3.7

---

# Measured On: ATX (full length human β form with a C-terminal 6-His tag) (Homo sapiens, UniProt Q13822)
# Format: biochemical
# Measurement Parameters: LLE = pIC50 – cLogP; from concentration response pIC50
Quantity Measured: LLE (lipophilic ligand efficiency)

NCc1cccc(O)c1 [Compound 6] | 2.8
OB(O)c1ccccc1OCc1cccc(Cl)c1 [Compound 16] | 3.5
COc1cc(COc2ccc(B(O)O)cc2Cl)cc(OC)c1 [Compound 22] | 3.4
Oc1ccc2nonc2c1 [Compound 4] | 3.5
OB(O)c1cccc(O)c1 [Compound 5] | 3.7
Nc1cccc(-c2nnc[nH]2)c1 [Compound 8] | 3.4
OB(O)c1ccc(O)cc1 [Compound 9] | 3.7
